- PROTOCOL DESCRIPTION: IUF_NPC4_neurite_length_120hr: Leibniz Research Institute for Environmental Medicine (IUF) 120-hour Neuronal Morphology Assay for Neurite Length (NPC4) (AID 2284302)
The source made the active and inactive calls. The calls were made as follows: active = hit-call score of the fitted dose curve at least 0.9, where 1 is the maximum; inactive = score below 0.9.
// one of active, inactive, no free text

Look over these answered cases.
{"columns": ["COMPOUND", "LABEL CLASS"],
 "data": [
  ["CC1(C)[C@H](C=C(Cl)Cl)[C@H]1C(=O)OCc1c(F)c(F)cc(F)c1F", "inactive"],
  ["CC(C)CCCCCCCOP(=O)(Oc1ccccc1)Oc1ccccc1", "inactive"],
  ["C/C(=C/C=C/[C@@H](C)C(=O)O)[C@H]1CN[C@H](C(=O)O)[C@H]1CC(=O)O", "active"],
  ["Brc1ccc(Oc2ccc(Br)cc2Br)c(Br)c1", "inactive"],
  ["COP(=O)(OC)SCN1C(=O)c2ccccc2C1=O", "inactive"]
]}

Which outcome did this test record for the compound C[n+]1ccc(-c2ccccc2)cc1 ?
inactive

Another compound to check: [Cd+2].[Cl-].[Cl-]
active

Item: CC(=O)[O-].[Tl+]
active

----------
- PROTOCOL DESCRIPTION: BSK_3C_Vis: BioMAP Diversity Plus: 3C Assay for Morphology Visualization (AID 2283025);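 also: fitted both ways so gain or loss versus DMSO counts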
- TEST CONTEXT: primary human endothelial cells (HUVEC)
Active and inactive are the calls of the source. How the source made its calls: active means hit-call score of the fitted dose curve at least 0.9, where 1 is the maximum; inactive means score below 0.9.
In this exercise, the only acceptable responses are TRUE for active, FALSE for inactive

Answered examples (3):
{"columns": ["MOLECULE", "LABEL CLASS"],
 "data": [
  ["CC(C)(c1cc(Cl)c(O)c(Cl)c1)c1cc(Cl)c(O)c(Cl)c1", "TRUE"],
  ["CCc1cc(C)cc(CC)c1-c1c(OC(=O)C(C)(C)C)n2n(c1=O)CCOCC2", "FALSE"],
  ["c1ccc(Nc2ccc3ccccc3c2)cc1", "TRUE"]
]}

Write down the call the test reported for this molecule. Item: C=CCN(CC=C)C(=O)C(Cl)Cl
FALSE

What do you get for C=CC(=O)OCC(CC)CCCC (stereo not drawn) ?
FALSE

Request: CC(C)(C)C(O)C(Oc1ccc(-c2ccccc2)cc1)n1cncn1 (stereo not drawn)
TRUE

Ok, now O=C1C(Cl)=C(Cl)C(=O)C(Cl)=C1Cl
TRUE

And the next one, Clc1ccc(-c2ccccc2)cc1 ?
FALSE

----------
- MEASUREMENT TARGET: Heat shock factor protein 1 (Homo sapiens) (UniProt Q00613)
- Sequence (Q00613 whole entry, looked up): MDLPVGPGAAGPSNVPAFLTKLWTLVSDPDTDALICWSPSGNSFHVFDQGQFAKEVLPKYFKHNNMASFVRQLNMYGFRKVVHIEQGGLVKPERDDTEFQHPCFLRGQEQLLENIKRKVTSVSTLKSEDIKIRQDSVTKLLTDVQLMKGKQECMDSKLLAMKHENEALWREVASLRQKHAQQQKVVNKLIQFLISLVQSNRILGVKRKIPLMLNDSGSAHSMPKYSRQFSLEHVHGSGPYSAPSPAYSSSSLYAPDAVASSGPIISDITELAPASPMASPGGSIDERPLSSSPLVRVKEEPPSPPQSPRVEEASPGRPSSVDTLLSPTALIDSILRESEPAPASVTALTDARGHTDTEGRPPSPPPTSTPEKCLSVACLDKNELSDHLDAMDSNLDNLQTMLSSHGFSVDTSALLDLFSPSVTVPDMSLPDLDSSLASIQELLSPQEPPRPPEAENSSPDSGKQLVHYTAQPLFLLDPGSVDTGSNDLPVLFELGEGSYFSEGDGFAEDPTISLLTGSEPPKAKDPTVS
- PROTOCOL DESCRIPTION: ATG_HSE_CIS: Attagene CIS-FACTORIAL HepG2 Assay for human Heat Shock Transcription Factor 1 (HSE) (AID 2282953)
- TEST CONTEXT: HepG2 HSE cis-reporter, Attagene RNA transcription; actives raise or lower the signal
Activity calls are given as the source filed them. Rule for the calls: active = hit-call score of the fitted dose curve at least 0.9, where 1 is the maximum; inactive = score below 0.9.
The categories you may choose from are active, inactive

Some entries whose results are on file:
{"columns": ["COMPOUND", "LABEL CLASS"],
 "data": [
  ["S=c1[nH]c2ccccc2[nH]1", "inactive"],
  ["C=CC(=O)OC", "inactive"]
]}

Test call for this compound, please: [Cl][Sb]([Cl])[Cl]
active

Try this compound too: O=C(NCNC(=O)NC1C(=O)NC(=O)N1CO)NC1C(=O)NC(=O)N1CO (stereo unspecified)
inactive

What do you have for C=CCc1ccc(OC(=O)Cc2ccccc2)c(OC)c1 ?
inactive

And the next one, COc1ccc(CO)cc1 ?
inactive

Same question, CC[N+](=O)[O-] this time
inactive

Next record, please: CC1CCC(=O)O1 (stereo unspecified)
inactive

Try the compound NNc1ccccc1
inactive

Similarly, CC1(C)[C@H](C(=O)O[C@H](C#N)c2cccc(Oc3ccccc3)c2)[C@@H]1C=C(Br)Br ?
inactive

How about this compound: Oc1cc(Cl)ccc1Cl
inactive

Also O=C(O)CCl ?
inactive

Try ClCCCCCCCl next.
inactive

For C=CCN(CC=C)C(=O)C(Cl)Cl then?
inactive

Try this compound too: [CH3][Sn]([Cl])([Cl])[Cl]
inactive

Can you check O=[N+]([O-])O.O=[N+]([O-])O.[Cd] next?
active

----------
- PROTOCOL DESCRIPTION: UKN4_HCS_LUHMES_cell_viability: Viability Assessment in the University of Konstanz (UKN) Leist Lab Neurite Outgrowth Assay in human LUHMES cells (UKN4) (AID 2284232)
Active and inactive are the calls of the source. How the source made its calls: active means hit-call score of the fitted dose curve at least 0.9, where 1 is the maximum; inactive means score below 0.9.
// one of active, inactive, no free text

Worked examples follow.
{"columns": ["MOLECULE", "LABEL CLASS"],
 "data": [
  ["C[n+]1ccc(-c2cc[n+](C)cc2)cc1", "inactive"],
  ["CP(=O)(O)CCC(N)C(=O)O (stereo not given)", "inactive"],
  ["[CH3][Sn]([CH3])([CH3])[Cl]", "active"],
  ["CN[C@@H](C)Cc1ccccc1", "inactive"],
  ["O=C1N[C@@H]2C(=C[C@H](O)[C@@H](O)[C@H]2O)c2cc3c(c(O)c21)OCO3", "active"],
  ["O=[As](O)(O)O", "active"],
  ["[O-][Cl+3]([O-])([O-])O", "inactive"],
  ["COC(=O)[C@H]1[C@@H](OC(=O)c2ccccc2)C[C@@H]2CC[C@H]1N2C", "inactive"],
  ["C[n+]1ccc(-c2ccccc2)cc1", "inactive"],
  ["Brc1ccc(Oc2cc(Br)c(Br)cc2Br)c(Br)c1", "inactive"]
]}

Record request — test call for CN1CC=C(c2ccccc2)CC1
inactive

Quick one: CNC(C)Cc1ccc2c(c1)OCO2 (stereo not given)
inactive

Also [CH3][Hg][Cl] ?
active

Same again, this time with Brc1ccc(Oc2ccc(Br)cc2Br)c(Br)c1
active

Moving on to the next molecule: CNC1(c2ccccc2Cl)CCCCC1=O (stereo not given)
inactive

----------
- MEASUREMENT TARGET: rat Acetylcholinesterase (AChE), Ache (gene 83817) (UniProt P37136)
- Sequence (P37136 whole entry, looked up): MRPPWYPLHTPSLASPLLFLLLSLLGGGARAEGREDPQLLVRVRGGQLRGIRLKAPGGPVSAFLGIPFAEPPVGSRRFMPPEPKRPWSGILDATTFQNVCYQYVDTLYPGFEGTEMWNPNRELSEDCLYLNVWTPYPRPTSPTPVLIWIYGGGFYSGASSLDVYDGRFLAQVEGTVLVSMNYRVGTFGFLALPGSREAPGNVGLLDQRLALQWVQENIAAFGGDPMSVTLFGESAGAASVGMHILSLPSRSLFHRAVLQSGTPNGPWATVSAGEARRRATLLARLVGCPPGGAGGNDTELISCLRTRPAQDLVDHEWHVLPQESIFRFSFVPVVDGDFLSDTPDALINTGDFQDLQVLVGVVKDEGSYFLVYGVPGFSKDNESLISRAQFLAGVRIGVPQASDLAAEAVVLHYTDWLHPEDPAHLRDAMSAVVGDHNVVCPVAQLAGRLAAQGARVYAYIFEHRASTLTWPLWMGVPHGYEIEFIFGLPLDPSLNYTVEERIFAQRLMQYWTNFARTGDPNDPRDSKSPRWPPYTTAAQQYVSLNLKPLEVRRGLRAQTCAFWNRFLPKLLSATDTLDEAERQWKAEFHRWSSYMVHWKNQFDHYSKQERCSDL
- PROTOCOL DESCRIPTION: NVS_ENZ_rAChE: NovaScreen (NVS) Enzymatic Assay for rat Acetylcholinesterase (AChE) (AID 2283233)
- Method: NVS_ENZ_rAChE is a biochemical, single-readout assay that uses extracted gene-proteins from Rat brain membranes in a tissue-based cell-free assay. Measurements were taken 0.33 hour after chemical dosing in a 96-well plate.NVS_ENZ_rAChE is one of one assay component(s) measured or calculated from the NVS_ENZ_rAChE assay. […] This assay endpoint, NVS_ENZ_rAChE, was analyzed in the positive analysis fitting direction relative to DMSO as the negative control and baseline of activity. […]
Records with an inconclusive call do not appear. Calls of active or inactive are those of the source. How the source made its calls: active means hit-call score of the fitted dose curve at least 0.9, where 1 is the maximum; inconclusive means response in the unintended direction; inactive means score below 0.9.
Lab note: assign the record to one of Yes = active, No = inactive

A selection of reference data follows.
{"columns": ["INPUT SMILES", "MEASUREMENT TARGET", "LABEL CLASS"],
 "data": [
  ["O=S1(=O)CC(Cl)(Cl)C(Cl)(Cl)C1", "rat Acetylcholinesterase (AChE), Ache (gene 83817) (UniProt P37136)", "Yes"],
  ["CCCCCCCCCCCC[N+](C)(C)C", "rat Acetylcholinesterase (AChE), Ache (gene 83817) (UniProt P37136)", "No"],
  ["CCCCCCCCCCCCCC[N+](C)(C)C", "rat Acetylcholinesterase (AChE), Ache (gene 83817) (UniProt P37136)", "Yes"],
  ["Nc1ccc(N)c([N+](=O)[O-])c1", "rat Acetylcholinesterase (AChE), Ache (gene 83817) (UniProt P37136)", "No"],
  ["CN[C@H]1CC[C@@H](c2ccc(Cl)c(Cl)c2)c2ccc(S(N)(=O)=O)cc21", "rat Acetylcholinesterase (AChE), Ache (gene 83817) (UniProt P37136)", "Yes"]
]}

Hey, what did the test say about CN(C)C(=O)C1(N2CCCCC2)CCN(CC[C@@]2(c3ccc(Cl)c(Cl)c3)CN(C(=O)c3ccccc3)CCO2)CC1 ?
Yes

----------
- MEASUREMENT TARGET: Cellular tumor antigen p53 (Homo sapiens) (UniProt P04637)
- Sequence (P04637 whole entry, looked up): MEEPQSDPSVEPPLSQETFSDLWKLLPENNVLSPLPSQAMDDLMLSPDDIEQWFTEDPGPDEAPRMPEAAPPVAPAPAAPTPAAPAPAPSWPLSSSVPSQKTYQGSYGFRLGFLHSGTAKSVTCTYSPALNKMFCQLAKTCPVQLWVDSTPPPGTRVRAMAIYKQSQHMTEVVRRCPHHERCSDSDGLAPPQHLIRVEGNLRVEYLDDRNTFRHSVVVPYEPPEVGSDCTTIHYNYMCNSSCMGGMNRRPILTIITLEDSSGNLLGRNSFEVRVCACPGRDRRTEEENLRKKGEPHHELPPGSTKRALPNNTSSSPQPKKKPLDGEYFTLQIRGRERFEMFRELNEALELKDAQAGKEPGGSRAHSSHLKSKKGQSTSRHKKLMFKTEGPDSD
- PROTOCOL DESCRIPTION: TOX21_p53_BLA_p2_ratio: Tox21 HCT-116 p53 Agonism Beta-lactamase Assay, Ratio, Phase 2 (AID 2283592)
- Procedure: TOX21_p53_BLA_p2 is a cell-based, single-readout assay that uses HCT116, a human intestinal cell line, […] in a 1536-well plate.TOX21_p53_BLA_p2_ratio is an assay readout measuring reporter gene via receptor activity and designed using inducible reporter (beta lactamase induction) detected with GAL4 b-lactamase reporter gene. […] This assay endpoint, TOX21_p53_BLA_p2_ratio, was analyzed in the positive analysis fitting direction relative to DMSO as the negative control and baseline of activity. […]
Inconclusive results are not listed. The source made the active and inactive calls. How the source made its calls: active means hit-call score of the fitted dose curve at least 0.9, where 1 is the maximum; inconclusive means response in the unintended direction; inactive means score below 0.9.
MEASUREMENT LABEL: AC50

Before answering, review these 6 worked examples.
{"columns": ["COMPOUND", "MEASUREMENT LABEL", "RESULT"],
 "data": [
  ["COc1cc(N)c(Cl)cc1C(=O)NC1CN2CCC1CC2 (stereo not drawn)", "AC50", "inactive"],
  ["CNC(C)[C@@H]1CC[C@@H](N)[C@@H](O[C@H]2[C@H](O)[C@@H](O[C@H]3OC[C@](C)(O)[C@H](NC)[C@H]3O)[C@H](N)C[C@@H]2N)O1 (stereo partly drawn) (tested in a mixture with another compound)", "AC50", "inactive"],
  ["Nc1nc(N)c(N)c(N)n1", "AC50", "inactive"],
  ["COc1ccc2c(C(=O)c3ccc(Cl)cc3)c(C)n(CC(=O)O)c2c1", "AC50", "inactive"],
  ["OC(c1ccc(F)cc1)(c1cncnc1)c1ccccc1Cl (stereo not drawn)", "AC50", "inactive"],
  ["COC1=CC(=O)O[C@@H](CCc2ccccc2)C1", "AC50", "inactive"]
]}

Bench note: what AC50 did CCC(N)Cc1c[nH]c2ccccc12 (stereo not drawn) show?
inactive
